- Test system: HOP-62
- Method Notes: NCI tumour cell line growth inhibition, 48 h
Active and inactive are the calls of the source. Cut-off read from the data, not from the text of the source: active = GI50 up to about 1.1 µM and inactive = higher.
Quick reference: GI50 of the listed items.

Input line: Need GI50, item COc1ccc(/C=C2\C(=O)N(C(=O)c3ccc(NC(C)=O)cc3)N=C2C)cc1OC
Output line: > 100 µM (inactive)

Input line: Now give it for CCOC(=O)C1CCC(=O)N1C(=O)c1ccccc1Cl (stereo unspecified) too.
Output line: > 100 µM (inactive)

Input line: Now consider CCCCP1(=O)C=CC(Cl)=C(C)C1 (stereo unspecified) .
Output line: > 100 µM (inactive)

Now consider a different compound.
Input line: I have this compound here, CC1=NOC(=O)/C1=C/c1ccccc1O , and I need its recorded GI50.
Output line: > 100 µM (inactive)
